B1: STX11 (parent)
chain: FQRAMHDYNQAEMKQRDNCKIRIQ

Variants of: B1
Method Notes: protein stability index of a GFP-peptide fusion (GPS, HEK-293T) (PSI 1-6); higher = more stable;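 further: lentivirally expressed fusions sorted by FACS into six bins by GFP to DsRed ratio, PSI derived from sequencing read proportions per bin multiplied by bin number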
Protocol Conditions: c terminus: a fixed tail appended
The variants listed here are annotated with their protein stability index.

Guide cases for protein stability index, answers given:
M13A 2.95
K14F 2.91

// next entry
[in] Quick one: protein stability index of H6L ?
[out] 2.91
